assay: Cytotoxicity against human HepG2 cells assessed as viable cells at 25 microg/ml incubated for 24 hrs by CCK-8 assay; assay type: toxicity, cell-based; conditions: at 25 µg/mL, read-out: Activity
Result type: viability at 24 h, 25 microg/ml (%)
Respond with the bare value in %.

I have this molecule here, C=C(C)[C@@H]1CCC(C)=C[C@H]1c1c(OCCCNC(=N)N)cc(CCCCC)cc1OCCCNC(=N)N , and I need its recorded viability at 24 h, 25 microg/ml.
92.9

====

test system: Acinetobacter baumannii; experiment: Antibacterial activity against Acinetobacter baumannii ATCC 17978 assessed as inhibition of bacterial growth incubated for 24 hrs by broth dilution method; type: functional
Result type: MIC

Field request: MIC | item: C=C(C)[C@@H]1CCC(C)=C[C@H]1c1c(OCCCCCCBr)cc(CCCCC)cc1OCCCCCCBr
> 50 mg/L
